Molecular target: human TRPV4 (Homo sapiens, UniProt Q9HBA0)
Construct: expressed in transfected cells; host or cells: HeLa cells, transient transfection with pcDNA3.1 Directional TOPO vector
Sequence (Q9HBA0 whole entry): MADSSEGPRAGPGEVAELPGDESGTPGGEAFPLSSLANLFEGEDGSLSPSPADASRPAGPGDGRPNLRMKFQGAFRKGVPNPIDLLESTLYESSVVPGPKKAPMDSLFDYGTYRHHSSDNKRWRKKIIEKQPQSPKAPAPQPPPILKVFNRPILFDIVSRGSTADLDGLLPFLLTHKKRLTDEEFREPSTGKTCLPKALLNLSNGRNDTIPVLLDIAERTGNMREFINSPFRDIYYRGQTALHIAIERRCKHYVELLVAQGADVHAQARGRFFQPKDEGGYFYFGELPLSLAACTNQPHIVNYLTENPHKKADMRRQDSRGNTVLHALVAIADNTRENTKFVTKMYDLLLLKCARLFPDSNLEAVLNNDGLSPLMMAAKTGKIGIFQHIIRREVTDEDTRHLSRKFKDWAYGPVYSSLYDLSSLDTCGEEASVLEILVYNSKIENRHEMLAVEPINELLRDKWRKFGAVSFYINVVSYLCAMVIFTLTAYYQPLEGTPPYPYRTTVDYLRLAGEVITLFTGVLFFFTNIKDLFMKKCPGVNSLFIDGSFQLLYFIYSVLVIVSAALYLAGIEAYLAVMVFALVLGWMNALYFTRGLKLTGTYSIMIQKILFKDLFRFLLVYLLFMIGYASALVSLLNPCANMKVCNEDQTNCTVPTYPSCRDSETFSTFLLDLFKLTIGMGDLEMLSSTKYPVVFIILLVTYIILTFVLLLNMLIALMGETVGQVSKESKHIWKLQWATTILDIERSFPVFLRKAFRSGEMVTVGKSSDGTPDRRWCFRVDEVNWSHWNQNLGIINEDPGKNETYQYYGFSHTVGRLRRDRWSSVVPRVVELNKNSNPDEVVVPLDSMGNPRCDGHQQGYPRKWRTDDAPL
Experiment: Measurement of intracellular calcium ion influx activity in human TRPV4 expressing cells (HeLa, Fluo4) stimulated with TRPV4 agonist GSK1016790a
Assay type: cell-based
Settings: sample 30 μM + GSK1016790a 3 nM; GSK + solvent = 100%; human TRPV4 expressing HeLa cells; n = 3, Mean ± S.E.
Listing of recorded Intracellular Ca^2+ influx rate (%) by entry.
REPORTED PROPERTY: Intracellular Ca^2+ influx rate (%)

INSERT INTO results (molecule, result) VALUES
  ('COc1ccc(CC(OC(=O)/C=C/c2ccc(O)c(OC)c2)C(=O)O)cc1O (stereo not shown) [4,3′-DiMe-RA]', '85.31 ± 8.14 (P < 0.05) %'),
  ('COc1ccc(/C=C/C(=O)OC(Cc2ccc(OC)c(O)c2)C(=O)O)cc1O (stereo not shown) [4,4′-DiMe-RA]', '83.19 ± 4.69 (P < 0.05) %'),
  ('COc1ccc(CC(OC(=O)/C=C/c2ccc(O)c(O)c2)C(=O)O)cc1OC (stereo not shown) [3,4-DiMe-RA]', '80.66 ± 1.58 (P < 0.01) %'),
  ('COc1ccc(/C=C/C(=O)OC(Cc2ccc(O)c(O)c2)C(=O)O)cc1OC (stereo not shown) [3′,4′-DiMe-RA]', '78.81 ± 3.67 (P < 0.01) %');
